STUDY_SYSTEM: GRK4 (human) (UniProt P32298)
Sequence (P32298 whole entry, looked up): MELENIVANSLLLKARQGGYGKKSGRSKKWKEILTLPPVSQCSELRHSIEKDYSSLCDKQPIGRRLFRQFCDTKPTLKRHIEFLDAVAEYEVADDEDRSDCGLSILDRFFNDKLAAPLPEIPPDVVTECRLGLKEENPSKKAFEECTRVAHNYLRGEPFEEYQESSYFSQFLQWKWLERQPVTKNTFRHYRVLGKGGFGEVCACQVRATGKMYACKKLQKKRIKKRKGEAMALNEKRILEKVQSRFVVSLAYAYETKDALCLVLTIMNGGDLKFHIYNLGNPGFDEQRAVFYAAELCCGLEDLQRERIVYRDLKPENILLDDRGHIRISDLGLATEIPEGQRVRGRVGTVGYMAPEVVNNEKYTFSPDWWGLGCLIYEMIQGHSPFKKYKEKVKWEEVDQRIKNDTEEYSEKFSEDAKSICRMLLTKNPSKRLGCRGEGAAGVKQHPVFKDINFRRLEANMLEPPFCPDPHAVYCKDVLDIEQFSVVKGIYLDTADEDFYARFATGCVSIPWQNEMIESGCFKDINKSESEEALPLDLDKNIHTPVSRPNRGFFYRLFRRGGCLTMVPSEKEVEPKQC
MEASUREMENT_DESCRIPTION: KINOMEscan competition binding
MEASUREMENT_CONTEXT: compound 10.0 µM
MEASUREMENT_NAME: kinase still bound, per cent of control (%)
Answer in %, number only, no unit symbol.

Observe how each entry below is paired with its result.
- MOL_SMILES: "N#CCNC(=O)c1ccc(-c2ccnc(Nc3ccc(N4CCOCC4)cc3)n2)cc1"
  STUDY_SYSTEM: "GRK4 (human) (UniProt P32298)"
  kinase still bound, per cent of control [%]: 10
- MOL_SMILES: "COc1cc2ncn(-c3cc(OCc4ccccc4C(F)(F)F)c(C(N)=O)s3)c2cc1OC"
  STUDY_SYSTEM: "GRK4 (human) (UniProt P32298)"
  kinase still bound, per cent of control [%]: 18

Input line: Report measured kinase still bound, per cent of control; entry is C=CC(=O)Nc1cc(-n2c(=O)ccc3cnc4ccc(-c5cn[nH]c5)cc4c32)ccc1C
Output line: 84

Input line: Report measured kinase still bound, per cent of control; entry is C[C@@H](Oc1cc(-c2cnn(C3CCNCC3)c2)cnc1N)c1c(Cl)ccc(F)c1Cl
Output line: 14

Input line: Report measured kinase still bound, per cent of control; entry is O=C1NC(=O)/C(=C/c2ccc3nccc(-c4ccncc4)c3c2)S1
Output line: 47

Input line: Report measured kinase still bound, per cent of control; entry is CNC(=O)c1cc(Oc2ccc(NC(=O)Nc3ccc(Cl)c(C(F)(F)F)c3)cc2)ccn1
Output line: 100

Input line: Report measured kinase still bound, per cent of control; entry is CCN1CCN(C(=O)Cc2ccc(Nc3ncc(F)c(Nc4ccc(C(=O)Nc5ccccc5Cl)cc4)n3)cc2)CC1
Output line: 8.8

Input line: Report measured kinase still bound, per cent of control; entry is COCC(=O)NC/C=C/c1ccc2ncnc(Nc3ccc(Oc4ccc(C)nc4)c(C)c3)c2c1
Output line: 100

Input line: Report measured kinase still bound, per cent of control; entry is O=C(Nc1cccc(Nc2ncc(Br)c(NCCc3cnc[nH]3)n2)c1)N1CCCC1
Output line: 5.6
